# studySystem: human KDR (human, UniProt P35968 20-1356)
# Sequence (P35968 20-1356): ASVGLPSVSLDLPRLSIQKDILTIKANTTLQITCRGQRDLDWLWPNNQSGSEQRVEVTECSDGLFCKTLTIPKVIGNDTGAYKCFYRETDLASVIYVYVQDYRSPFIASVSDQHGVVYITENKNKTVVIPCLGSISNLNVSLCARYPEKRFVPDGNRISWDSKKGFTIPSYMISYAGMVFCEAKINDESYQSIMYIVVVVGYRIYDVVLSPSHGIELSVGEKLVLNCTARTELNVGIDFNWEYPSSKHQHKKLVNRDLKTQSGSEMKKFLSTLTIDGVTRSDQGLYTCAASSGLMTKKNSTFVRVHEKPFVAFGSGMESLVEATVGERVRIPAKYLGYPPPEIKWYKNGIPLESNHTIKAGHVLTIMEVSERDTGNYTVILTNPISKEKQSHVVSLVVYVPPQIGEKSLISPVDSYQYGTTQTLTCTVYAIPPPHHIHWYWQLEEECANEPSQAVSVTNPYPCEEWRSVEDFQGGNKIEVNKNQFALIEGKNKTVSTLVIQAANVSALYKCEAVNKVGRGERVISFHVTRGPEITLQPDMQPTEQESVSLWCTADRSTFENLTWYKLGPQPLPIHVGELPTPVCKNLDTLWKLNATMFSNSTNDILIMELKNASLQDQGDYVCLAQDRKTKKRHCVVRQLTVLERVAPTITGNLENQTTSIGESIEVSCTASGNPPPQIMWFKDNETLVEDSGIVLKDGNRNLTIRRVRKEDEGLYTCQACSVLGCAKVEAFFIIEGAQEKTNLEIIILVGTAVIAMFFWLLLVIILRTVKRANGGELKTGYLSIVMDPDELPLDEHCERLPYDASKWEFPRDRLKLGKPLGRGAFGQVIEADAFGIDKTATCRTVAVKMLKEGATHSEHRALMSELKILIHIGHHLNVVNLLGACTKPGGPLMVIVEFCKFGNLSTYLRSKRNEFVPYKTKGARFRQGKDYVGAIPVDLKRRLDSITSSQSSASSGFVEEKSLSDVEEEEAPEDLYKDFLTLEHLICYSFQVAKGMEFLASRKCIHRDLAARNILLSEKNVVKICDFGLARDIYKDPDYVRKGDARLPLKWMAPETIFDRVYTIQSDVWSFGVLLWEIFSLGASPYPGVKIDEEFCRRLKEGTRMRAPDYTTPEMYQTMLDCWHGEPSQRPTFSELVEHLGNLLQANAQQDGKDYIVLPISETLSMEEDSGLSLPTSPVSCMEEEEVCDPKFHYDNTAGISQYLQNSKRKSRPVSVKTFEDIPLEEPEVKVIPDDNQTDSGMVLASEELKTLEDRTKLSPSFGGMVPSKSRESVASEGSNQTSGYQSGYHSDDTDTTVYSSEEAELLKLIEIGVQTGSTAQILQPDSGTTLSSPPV
# procedureDetails: cell-based or functional assay
valueType: 6-keto Prostaglandin F1α release, Maximum Inhibition (% Inhibition), N = 2 (333 nM)
A complete answer gives the number and then names the unit.

Request: Hello, please tell me recorded 6-keto Prostaglandin F1α release, Maximum Inhibition (% Inhibition), N = 2 (333 nM) for this one: 22B8 (antibody, V domains shown, Fully human monoclonal antibody from a XenoMouse hybridoma (IgG2 or IgG4 strain), purified) VH: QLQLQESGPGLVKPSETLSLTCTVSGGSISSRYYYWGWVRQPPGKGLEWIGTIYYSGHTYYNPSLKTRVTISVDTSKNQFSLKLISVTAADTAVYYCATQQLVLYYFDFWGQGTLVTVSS VL: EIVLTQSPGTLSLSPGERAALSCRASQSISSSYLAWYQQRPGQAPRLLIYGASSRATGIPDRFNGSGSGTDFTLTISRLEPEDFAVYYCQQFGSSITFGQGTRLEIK
Response: 76%

Request: Identify the reported 6-keto Prostaglandin F1α release, Maximum Inhibition (% Inhibition), N = 2 (333 nM) for the following entry. 33B1 (antibody, V domains shown, Fully human monoclonal antibody from a XenoMouse hybridoma (IgG2 or IgG4 strain), purified) VH: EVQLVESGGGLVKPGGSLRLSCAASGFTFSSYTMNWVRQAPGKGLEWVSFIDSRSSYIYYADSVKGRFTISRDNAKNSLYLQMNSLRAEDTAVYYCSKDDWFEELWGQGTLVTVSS VL: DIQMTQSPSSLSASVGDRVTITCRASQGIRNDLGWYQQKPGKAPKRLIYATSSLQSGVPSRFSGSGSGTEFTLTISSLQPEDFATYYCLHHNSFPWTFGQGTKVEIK
Response: 76%

Request: Please list 6-keto Prostaglandin F1α release, Maximum Inhibition (% Inhibition), N = 2 (333 nM) recorded for the binder 32G7 (antibody, V domains shown, Fully human monoclonal antibody from a XenoMouse hybridoma (IgG2 or IgG4 strain), purified) VH: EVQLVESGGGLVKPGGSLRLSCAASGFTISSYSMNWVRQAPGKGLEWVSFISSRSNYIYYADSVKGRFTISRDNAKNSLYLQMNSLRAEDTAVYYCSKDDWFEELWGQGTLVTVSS VL: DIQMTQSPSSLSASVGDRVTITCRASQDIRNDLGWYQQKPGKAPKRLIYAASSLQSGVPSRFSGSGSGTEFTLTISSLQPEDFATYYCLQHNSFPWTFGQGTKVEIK
Response: 55%

Request: Given 24B3 (antibody, V domains shown, Fully human monoclonal antibody from a XenoMouse hybridoma (IgG2 or IgG4 strain), purified) VH: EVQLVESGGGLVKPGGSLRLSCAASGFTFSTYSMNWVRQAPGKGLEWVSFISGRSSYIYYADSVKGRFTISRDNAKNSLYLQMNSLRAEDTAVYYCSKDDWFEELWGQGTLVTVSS VL: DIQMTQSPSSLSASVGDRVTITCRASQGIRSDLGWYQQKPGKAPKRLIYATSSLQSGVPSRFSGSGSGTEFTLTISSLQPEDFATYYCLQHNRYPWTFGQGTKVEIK , respond with its 6-keto Prostaglandin F1α release, Maximum Inhibition (% Inhibition), N = 2 (333 nM).
Response: 72%

Request: Look up 6-keto Prostaglandin F1α release, Maximum Inhibition (% Inhibition), N = 2 (333 nM) of 29H3 (antibody, V domains shown, Fully human monoclonal antibody from a XenoMouse hybridoma (IgG2 or IgG4 strain), purified) VH: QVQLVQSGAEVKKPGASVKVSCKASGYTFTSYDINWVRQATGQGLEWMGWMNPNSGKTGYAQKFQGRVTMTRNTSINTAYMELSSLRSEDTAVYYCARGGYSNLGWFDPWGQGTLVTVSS VL: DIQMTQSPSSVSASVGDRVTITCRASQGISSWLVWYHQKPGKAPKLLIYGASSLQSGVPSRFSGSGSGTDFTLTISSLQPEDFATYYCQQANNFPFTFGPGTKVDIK and report it.
Response: 8%
